assay: in vitro; conditions: Sprague Dawley, rat, hepatocytes
Readout Type: hepatocyte CLint (µL/min/1e6 cells)

# count of solved cases: 7
CCN/C(=N\S(=O)(=O)c1ccc(N)c(Cl)c1)N1CC(CC)C=N1 (configuration not stated): 87
CCN/C(=N\S(=O)(=O)c1ccc(N)cc1)N1CC2(C=N1)CCCC2: 33
CCN/C(=N\S(=O)(=O)c1ccc(O)c(Cl)c1)N1CC2(C=N1)CCCC2: 66
CCN/C(=N\S(=O)(=O)c1ccc2[nH]ncc2c1)N1CC2(C=N1)CCCC2: 99
CCN/C(=N\S(=O)(=O)c1ccc2[nH]c(C(F)(F)F)cc2c1)N1CC(C)(C)C=N1: 87
CCN/C(=N\S(=O)(=O)c1ccccc1)N1CC(CC)C=N1 (configuration not stated): 92
CCN/C(=N\S(=O)(=O)c1ccc(O)cc1)N1CC2(C=N1)CCCC2: 42

(I) CCN/C(=N\S(=O)(=O)c1ccc(N)cc1)N1CC(CC)C=N1 (configuration not stated)
(II) CCN/C(=N\S(=O)(=O)c1ccc2[nH]ccc2c1)N1CC2(C=N1)CCCC2
(III) CCN/C(=N\S(=O)(=O)c1ccc(N)cc1)N1CC2(C=N1)CCCCC2
(IV) CCN/C(=N\S(=O)(=O)c1ccc(N)cc1)N1CC2(C=N1)CCNCC2
(V) CCN/C(=N\S(=O)(=O)c1ccc(N)cc1)N1CC(C)(C)C=N1
List by increasing hepatocyte CLint. Give the labels in the order specified.
IV, V, I, III, II
(IV: 5 µL/min/1e6 cells, V: 20 µL/min/1e6 cells, I: 34 µL/min/1e6 cells, III: 53 µL/min/1e6 cells, II: 87 µL/min/1e6 cells)

###

test: Binding affinity to alpha adrenergic receptor (unknown origin); parameters: species or system Homo sapiens
pKi: −log10 of the molar value.
Readout Type: pKi

Please report the recorded pKi for CCN/C(=N\S(=O)(=O)c1ccc(N)cc1)N1CC2(C=N1)CCCC2 .
< 6.00

###

target: UniProtKB Q12809
Sequence (Q12809 whole entry): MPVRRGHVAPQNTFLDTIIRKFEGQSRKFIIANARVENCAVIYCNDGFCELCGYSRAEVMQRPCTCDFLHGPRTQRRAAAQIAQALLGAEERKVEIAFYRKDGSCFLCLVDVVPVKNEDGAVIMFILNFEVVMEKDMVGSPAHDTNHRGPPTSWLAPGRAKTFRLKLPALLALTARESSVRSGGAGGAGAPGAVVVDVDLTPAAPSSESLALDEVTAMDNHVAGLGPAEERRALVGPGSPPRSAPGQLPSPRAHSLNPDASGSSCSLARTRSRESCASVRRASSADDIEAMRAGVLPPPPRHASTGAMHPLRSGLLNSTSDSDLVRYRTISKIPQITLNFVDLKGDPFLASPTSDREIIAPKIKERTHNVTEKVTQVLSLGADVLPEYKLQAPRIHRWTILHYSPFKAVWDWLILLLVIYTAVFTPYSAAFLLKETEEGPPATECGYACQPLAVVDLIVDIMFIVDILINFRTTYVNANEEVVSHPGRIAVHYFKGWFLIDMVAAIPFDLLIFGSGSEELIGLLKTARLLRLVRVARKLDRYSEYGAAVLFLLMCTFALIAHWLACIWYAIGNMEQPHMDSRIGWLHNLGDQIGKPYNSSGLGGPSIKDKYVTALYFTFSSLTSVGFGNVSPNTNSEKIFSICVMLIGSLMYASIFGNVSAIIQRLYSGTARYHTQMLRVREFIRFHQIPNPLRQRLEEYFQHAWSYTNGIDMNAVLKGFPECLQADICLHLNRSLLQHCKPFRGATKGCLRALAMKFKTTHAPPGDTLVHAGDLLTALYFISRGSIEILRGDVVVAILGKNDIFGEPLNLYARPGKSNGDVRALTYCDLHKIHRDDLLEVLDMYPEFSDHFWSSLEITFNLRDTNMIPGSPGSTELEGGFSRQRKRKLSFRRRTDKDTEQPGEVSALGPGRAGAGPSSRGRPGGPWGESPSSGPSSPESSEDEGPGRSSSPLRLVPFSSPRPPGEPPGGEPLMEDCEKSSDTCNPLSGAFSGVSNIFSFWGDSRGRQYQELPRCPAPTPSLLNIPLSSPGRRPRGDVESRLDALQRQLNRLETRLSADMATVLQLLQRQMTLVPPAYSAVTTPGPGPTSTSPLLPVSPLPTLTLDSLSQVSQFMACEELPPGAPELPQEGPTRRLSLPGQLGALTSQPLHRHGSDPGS
pIC50: −log10 of the molar value.
Readout Type: pIC50

Please report the recorded pIC50 for CCN/C(=N\S(=O)(=O)c1ccc(N)cc1)N1CC2(C=N1)CCCC2 .
< 5.00

###

target: 5-hydroxytryptamine receptor 6 (Homo sapiens); test: Displacement of [3H]-N-Methyl-Lysergic acid diethylamide from human 5-HT6 receptor expressed in CHO cells after 30 mins by liquid scintillation counting analysis; type: cell-based
Sequence (P50406 whole entry): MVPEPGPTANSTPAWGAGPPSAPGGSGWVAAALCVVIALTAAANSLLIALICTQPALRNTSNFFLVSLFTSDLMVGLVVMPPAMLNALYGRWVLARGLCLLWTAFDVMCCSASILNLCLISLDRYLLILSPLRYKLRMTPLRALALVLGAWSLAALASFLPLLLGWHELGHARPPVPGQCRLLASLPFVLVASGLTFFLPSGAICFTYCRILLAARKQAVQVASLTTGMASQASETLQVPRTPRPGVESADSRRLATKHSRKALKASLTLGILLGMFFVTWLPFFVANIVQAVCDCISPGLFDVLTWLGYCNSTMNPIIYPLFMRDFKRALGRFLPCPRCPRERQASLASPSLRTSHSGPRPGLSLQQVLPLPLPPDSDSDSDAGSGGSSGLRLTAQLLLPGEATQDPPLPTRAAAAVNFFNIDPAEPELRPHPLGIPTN
pKi: −log10 of the molar value.
Readout Type: pKi

# count of solved cases: 2
CCN/C(=N\S(=O)(=O)c1ccc(N)cc1)N1CC(C)(C)C=N1: 7.69
CCN/C(=N\S(=O)(=O)c1cccc(O)c1)N1CC2(C=N1)CCCC2: 7.73

(P) CCN/C(=N\S(=O)(=O)c1cc(Cl)cc(OC)c1)N1CC2(C=N1)CCCC2
(Q) CCN/C(=N\S(=O)(=O)c1ccc(O)cc1)N1CC2(C=N1)CCCC2
Given the listed records, identify the one among P and Q with higher pKi. Which one? Tell me its label.
Q
(Q: 8.24, P: 7.32)

###

tested on: MDR; assay: in vitro; details: pig, LLC-PK1
Readout Type: efflux ratio at 3 h, 1 ug/ml

# count of solved cases: 5
CCN/C(=N\S(=O)(=O)c1ccc(N)cc1)N1CC2(C=N1)CCCC2: 2.9
CCN/C(=N\S(=O)(=O)c1cccc(O)c1)N1CC2(C=N1)CCCC2: 1.1
CCN/C(=N\S(=O)(=O)c1ccc(N)cc1)N1CC(C)(C)C=N1: 3
CCN/C(=N\S(=O)(=O)c1ccc(OC)c(Cl)c1)N1CC2(C=N1)CCCC2: 1.3
CCN/C(=N\S(=O)(=O)c1ccc(N)c(Cl)c1)N1CC(CC)C=N1 (stereo not given): 1.6

(1) CCN/C(=N\S(=O)(=O)c1ccccc1)N1CC(CC)C=N1 (stereo not given)
(2) CCN/C(=N\S(=O)(=O)c1cccc(N)c1)N1CC2(C=N1)CCCC2
(3) CCN/C(=N\S(=O)(=O)c1ccc(NC(C)=O)c(Cl)c1)N1CC(CC)C=N1 (stereo not given)
List by increasing efflux ratio at 3 h, 1 ug/ml. Give the labels in the order specified.
1, 3, 2

(I) CCN/C(=N\S(=O)(=O)c1ccc2c(c1)NCC2)N1CC(CC)C=N1 (stereo not given)
(II) CCN/C(=N\S(=O)(=O)c1ccc2cc[nH]c2c1)N1CC(CC)C=N1 (stereo not given)
Form: Entry with minimum efflux ratio at 3 h, 1 ug/ml (choose one): I / II Which one? Tell me its label.
I
(I: 1.8, II: 2.8)

Taken from ChEMBL document CHEMBL3784972.
